# system name: D(2) dopamine receptor (Rattus norvegicus, UniProt P61169)
# Sequence (P61169 whole entry): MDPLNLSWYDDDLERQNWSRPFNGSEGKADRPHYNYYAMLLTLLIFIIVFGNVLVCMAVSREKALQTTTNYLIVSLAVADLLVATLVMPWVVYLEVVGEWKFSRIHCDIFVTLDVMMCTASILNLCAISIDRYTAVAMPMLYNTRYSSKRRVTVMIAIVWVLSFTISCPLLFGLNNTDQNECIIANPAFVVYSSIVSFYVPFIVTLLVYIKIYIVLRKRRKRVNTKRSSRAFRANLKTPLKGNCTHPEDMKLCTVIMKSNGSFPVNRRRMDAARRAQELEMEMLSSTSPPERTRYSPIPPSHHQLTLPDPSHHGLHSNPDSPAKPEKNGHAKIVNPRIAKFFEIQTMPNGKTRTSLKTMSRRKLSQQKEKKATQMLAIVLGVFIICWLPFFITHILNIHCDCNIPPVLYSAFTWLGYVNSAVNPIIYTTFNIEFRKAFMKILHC
# protocol details: Displacement of [3H]spiperone from dopamine D2 receptor in Sprague-Dawley rat striatum incubated for 30 mins by liquid scintillation counting analysis
pKi: −log10 of the molar value.
endpoint name: pKi

a: O=c1ccc(OCCCN2CCN(c3cccc(Cl)c3Cl)CC2)nn1-c1ccc(Cl)c(Cl)c1
b: O=C(c1ccc(F)cc1)C1CCN(CCCOc2ccc(=O)n(-c3ccc(Cl)c(Cl)c3)n2)CC1
c: O=c1ccc(OCCCN2CCC(c3noc4cc(F)ccc34)CC2)nn1-c1ccc(Cl)cc1
Sort entries by pKi from minimum to maximum value. Answer by listing the labels in the order asked for.
a, b, c
(a: 6.11, b: 6.75, c: 7.55)

----------
# system name: D(2) dopamine receptor (Rattus norvegicus, UniProt P61169)
# protocol details: Displacement of [3H]spiperone from dopamine D2 receptor in Sprague-Dawley rat striatum incubated for 30 mins by liquid scintillation counting analysis
endpoint name: Ki (nM)

// solved cases for Ki follow
cpd smiles	endpoint name	readout units	result
O=c1ccc(OCCCN2CCC(c3noc4cc(F)ccc34)CC2)nn1-c1cc(F)cc(F)c1	Ki	nM	35.4
COc1ccccc1N1CCN(CCCOc2ccc(=O)n(-c3ccc(Cl)c(Cl)c3)n2)CC1	Ki	nM	524
O=c1ccc(OCCCN2CCC(c3noc4cc(F)ccc34)CC2)nn1-c1c(F)cccc1F	Ki	nM	0.5
Cc1ccc(-n2nc(OCCCN3CCC(c4noc5cc(F)ccc45)CC3)ccc2=O)cc1	Ki	nM	33.1
O=c1ccc(OCCCN2CCN(c3ccccc3)CC2)nn1-c1ccc(Cl)c(Cl)c1	Ki	nM	1320

A: O=c1c2ccccc2c(OCCCN2CCC(c3noc4cc(F)ccc34)CC2)nn1-c1ccc(Cl)c(Cl)c1
B: NC(=O)c1ccc2occ(N3CCN(CCCOc4ccc(=O)n(-c5ccc(Cl)c(Cl)c5)n4)CC3)c2c1
I'd appreciate it if you could identify which of A and B has the greater Ki. Mark your answer with the label of the selected entry.
B
(B: 379 nM, A: 43.7 nM)

A: O=c1c2c(c(OCCCN3CCC(c4noc5cc(F)ccc45)CC3)nn1-c1ccc(Cl)c(Cl)c1)CCCC2
B: O=c1ccc(OCCCN2CCC(c3noc4cc(F)ccc34)CC2)nn1-c1ccc2ccccc2c1
Of A and B , whose reported Ki is numerically smaller? Mark your answer with the label of the selected entry.
B

1: O=c1ccc(OCCCN2CCC(c3noc4cc(F)ccc34)CC2)nn1-c1ccc(F)cc1
2: O=c1ccc(OCCCN2CCC(c3noc4cc(F)ccc34)CC2)nn1-c1ccc(F)c(F)c1
3: O=c1ccc(OCCCN2CCN(c3csc4ccccc34)CC2)nn1-c1ccc(Cl)c(Cl)c1
4: O=c1ccc(OCCCN2CCC(c3noc4cc(F)ccc34)CC2)nn1-c1cc(Cl)ccc1Cl
Please list the entries, largest Ki first. Answer by listing the labels in the order asked for.
3, 2, 1, 4
(3: 648 nM, 2: 38.5 nM, 1: 10.8 nM, 4: 2.7 nM)

a: Cc1c(OCCCN2CCC(c3noc4cc(F)ccc34)CC2)nn(-c2ccc(Cl)c(Cl)c2)c(=O)c1C
b: O=c1ccc(OCCCN2CCN(c3nsc4ccccc34)CC2)nn1-c1ccc(Cl)c(Cl)c1
c: O=c1ccc(OCCCN2CCC(c3noc4cc(F)ccc34)CC2)nn1-c1cc(F)ccc1F
Please list the entries, largest Ki first. Answer by listing the labels in the order asked for.
b, a, c
